System: HL-60 tumor cells
ASSAY INFO: Cytotoxic activity, Trypan Blue exclusion
Assay type: cell-based
CONDITION SUMMARY: Homo sapiens, HL-60, 24 h, read-out: Cytotoxicity EC₅₀
pEC50: −log10 of the molar value.
# key: entry, value: pEC50

[
  {
    "COMPOUND": "C[N+](C)(C)CCCCCCCCCCCCCCCCOCC1COc2ccccc2O1 (centres unmarked) [Example 5]",
    "TARGET DESC": "HL-60 tumor cells",
    "pEC50": 4.74
  },
  {
    "COMPOUND": "C[N+]1(CCCCCCCCCCOCC2COc3ccccc3O2)CCOCC1 (centres unmarked) [Example 30]",
    "TARGET DESC": "HL-60 tumor cells",
    "pEC50": 4.52
  },
  {
    "COMPOUND": "C[N+]1(CCCCCCCCCCOCC2COc3ccccc3O2)CCCCC1 (centres unmarked) [Example 23]",
    "TARGET DESC": "HL-60 tumor cells",
    "pEC50": 4.70
  },
  {
    "COMPOUND": "C[N+](C)(C)CCCCCCCCCCOCC1COc2ccccc2O1 (centres unmarked) [Example 4]",
    "TARGET DESC": "HL-60 tumor cells",
    "pEC50": 4.15
  },
  {
    "COMPOUND": "CC[N+](CC)(CC)CCCCCCCCCCOCC1COc2ccccc2O1 (centres unmarked) [Example 10]",
    "TARGET DESC": "HL-60 tumor cells",
    "pEC50": 4.52
  }
]
